Source of measurements: patent US10683297B2

Listed molecules paired with reported CLint scaled at 5 μM
assay: Compound stability in rat liver microsomes; type: in vitro ADME; conditions: liver microsomes, pH 7.4; in vivo CLint extrapolated from rat liver microsome incubation
Quantity kind: CLint scaled at 5 μM (mL/min/kg)

[[record]]
molecule = "CC(O)Cn1cnc2cc(Nc3ncc(Cl)c(NC4CCN(c5ccc(C#N)cn5)CC4)n3)cnc21 (stereo not shown)"
value = 85.1

[[record]]
molecule = "CC(O)c1cnc2cc(Nc3ncc(Cl)c(NC4CCN(c5ccc(C#N)cn5)CC4)n3)ccn12 (stereo not shown)"
value = 57.5

[[record]]
molecule = "N#Cc1ccc(N2CCC(Nc3nc(Nc4ccn5c(C(F)F)nnc5c4)ncc3Cl)CC2)nc1"
value = 30.8

[[record]]
molecule = "CC(C)(O)Cn1nnc2cc(Nc3ncc(Cl)c(NC4CCN(c5ccc(C#N)nn5)CC4)n3)ccc21"
value = 75.3


----------
assay: Compound stability in human liver microsomes; assay type: in vitro ADME; settings: human liver microsomes 0.5 mg protein/mL, compound 5 μM, NADPH 1.0 mM, pH 7.4, 37° C.; read-out: Human T1/2
Quantity kind: half-life at 5 μM (min)

[[record]]
compound = "CCC1CN(c2ccc(C#N)cn2)CCC1Nc1nc(Nc2ccn3c(C(C)(C)O)nnc3c2)ncc1Cl (stereo not drawn)"
quantity_kind = "half-life at 5 μM"
value = 198

[[record]]
compound = "CC(C)(O)Cn1cnc2cc(Nc3ncc(Cl)c(NC4CCN(c5ccc(C#N)cn5)CC4)n3)ccc21"
quantity_kind = "half-life at 5 μM"
value = 40.3

[[record]]
compound = "CCC1CN(c2ccc(C#N)cn2)CCC1Nc1nc(Nc2ccn3c(C)cnc3c2)ncc1Cl (stereo not drawn)"
quantity_kind = "half-life at 5 μM"
value = 36.2

[[record]]
compound = "CC(C)(O)c1nc2cc(Nc3ncc(Cl)c(NC4CCN(c5ccc(C#N)cc5)CC4)n3)ccn2n1"
quantity_kind = "half-life at 5 μM"
value = 419

[[record]]
compound = "CN(C)C(=O)c1nc2cc(Nc3ncc(Cl)c(NC4CCN(c5ccc(C#N)nn5)CC4)n3)ccn2n1"
quantity_kind = "half-life at 5 μM"
value = 32.5

[[record]]
compound = "CC(C)(O)Cc1nc2cc(Nc3ncc(Cl)c(NC4CCN(c5ccc(C#N)nn5)CC4)n3)ccn2n1"
quantity_kind = "half-life at 5 μM"
value = 257

[[record]]
compound = "CC(C)(O)c1cnc2cc(Nc3ncc(Cl)c(NC4CCN(c5ccc(C#N)cn5)CC4)n3)ccn12"
quantity_kind = "half-life at 5 μM"
value = 10.6

[[record]]
compound = "N#Cc1ccc(N2CCC(Nc3nc(Nc4ccn5cc(C(F)F)nc5c4)ncc3Cl)CC2)nn1"
quantity_kind = "half-life at 5 μM"
value = 41.5

[[record]]
compound = "N#Cc1ccc(N2CCC(Nc3nc(Nc4ccc5c(c4)nnn5CC4CC4)ncc3Cl)CC2)nc1"
quantity_kind = "half-life at 5 μM"
value = 15.6


----------
Experiment: Compound stability in rat liver microsomes
Format: in vitro ADME
Conditions: liver microsomes, pH 7.4; in vivo CLint extrapolated from rat liver microsome incubation
Protocol: The LC/MS/MS system used in the analysis consists of an Agilent 1200 Series vacuum degasser, binary pump, well-plate autosampler, thermostatted column compartment, the Agilent G6430 Triple Quadrupole Mass Spectrometer with an electrosprayionization (ESI) source. Quantitative analysis was carried out using MRM mode. The parameters for MRM transitions are in the Table A. […] The concentrations of compounds in the incubation mixtures of human or rat liver microsomes were determined by a LC/MS/MS method. […]
Label condition not met if CLint scaled at 5 μM falls below 20 mL/min/kg; label condition met in every other case.

[[record]]
compound = "Cc1nc2cc(Nc3ncc(Cl)c(NC4CCN(c5ccc(C#N)nn5)CC4)n3)ccn2n1 [Example 35]"
label_value = "condition not met"

[[record]]
compound = "CC(C)(O)c1nc2cc(Nc3ncc(Cl)c(NC4CCN(c5ccc(C#N)cn5)CC4)n3)ccn2n1 [Example 39]"
label_value = "condition not met"

[[record]]
compound = "Cc1cnc2ccc(Nc3ncc(Cl)c(NC4CCN(c5ccc(C#N)nn5)CC4)n3)cn12 [Example 13]"
label_value = "condition met"

[[record]]
compound = "CN(c1nc(Nc2ccc3ncnn3c2)ncc1Cl)C1CCN(c2ccc(C#N)cn2)CC1 [Example 9]"
label_value = "condition met"

[[record]]
compound = "CC(C)(O)Cc1nc2cc(Nc3ncc(Cl)c(NC4CCN(c5ccc(C#N)nn5)CC4)n3)ccn2n1 [Example 77]"
label_value = "condition met"

[[record]]
compound = "CC(O)Cc1nc2cc(Nc3ncc(Cl)c(NC4CCN(c5ccc(C#N)nn5)CC4)n3)ccn2n1 (centres unmarked) [Example 56]"
label_value = "condition met"

[[record]]
compound = "CC(C)(O)c1nc2cc(Nc3ncc(Cl)c(NC4CCN(c5ccc(C#N)nn5)CC4F)n3)ccn2n1 (centres unmarked) [Example 88]"
label_value = "condition not met"

[[record]]
compound = "CCC1CN(c2ccc(C#N)nn2)CCC1N(C)c1nc(Nc2ccn3c(C)cnc3c2)ncc1Cl (centres unmarked) [Example 11]"
label_value = "condition not met"


----------
experiment: Compound stability in rat liver microsomes; assay type: in vitro ADME; details: rat liver microsomes 0.5 mg protein/mL, compound 5 μM, NADPH 1.0 mM, pH 7.4, 37° C.; read-out: Rat T1/2
Quantity kind: half-life at 5 μM (h)

[[record]]
compound = "CC(O)Cn1cnc2cc(Nc3ncc(Cl)c(NC4CCN(c5ccc(C#N)cn5)CC4)n3)ccc21 (stereo not shown) [Example 61]"
quantity_kind = "half-life at 5 μM"
unit_info = "h"
value = 0.48

[[record]]
compound = "CC(C)(O)c1nc2cc(Nc3ncc(Cl)c(NC4CCN(c5ccc(C#N)cc5)CC4)n3)ccn2n1 [Example 81]"
quantity_kind = "half-life at 5 μM"
unit_info = "h"
value = 1.62

[[record]]
compound = "Cc1cn2c(C)cnc2cc1Nc1ncc(Cl)c(NC2CCN(c3ccc(C#N)nn3)CC2)n1 [Example 22]"
quantity_kind = "half-life at 5 μM"
unit_info = "h"
value = 3.55

[[record]]
compound = "CC(C)(O)c1nc2cc(Nc3ncc(Cl)c(NC4CCN(c5ccc(C#N)nn5)CC4)n3)ccn2n1 [Example 55]"
quantity_kind = "half-life at 5 μM"
unit_info = "h"
value = 5.67


----------
assay: Compound stability in human liver microsomes; format: in vitro ADME; conditions: human liver microsomes 0.5 mg protein/mL, compound 5 μM, NADPH 1.0 mM, pH 7.4, 37° C.; read-out: Human T1/2
Quantity kind: log10(half-life at 5 μM) (log10 of the value in h)

[[record]]
molecule = "CC(O)Cn1ccc2cc(Nc3ncc(Cl)c(NC4CCN(c5ccc(C#N)cn5)CC4)n3)cnc21 (centres unmarked)"
quantity_kind = "log10(half-life at 5 μM)"
value = -0.85

[[record]]
molecule = "Cc1nc2cc(Nc3ncc(Cl)c(NC4CCN(c5ccc(C#N)nn5)CC4)n3)ccn2n1"
quantity_kind = "log10(half-life at 5 μM)"
value = 0.48

[[record]]
molecule = "CC(C)(O)Cc1nc2ccc(Nc3ncc(Cl)c(NC4CCN(c5ccc(C#N)nn5)CC4)n3)cn2n1"
quantity_kind = "log10(half-life at 5 μM)"
value = 0.51

[[record]]
molecule = "CCC1CN(c2ccc(C#N)cn2)CCC1Nc1nc(Nc2ccn3c(C)nnc3c2)ncc1Cl (centres unmarked)"
quantity_kind = "log10(half-life at 5 μM)"
value = -0.13

[[record]]
molecule = "Cc1cnc2ccc(Nc3ncc(Cl)c(NC4CCN(c5ccc(C#N)nn5)CC4)n3)cn12"
quantity_kind = "log10(half-life at 5 μM)"
value = -0.44

[[record]]
molecule = "CC(O)Cn1cnc2cc(Nc3ncc(Cl)c(NC4CCN(c5ccc(C#N)cn5)CC4)n3)cnc21 (centres unmarked)"
quantity_kind = "log10(half-life at 5 μM)"
value = -0.10

[[record]]
molecule = "Cn1cnc2cc(Nc3ncc(Cl)c(NC4CCN(c5ccc(C#N)cn5)CC4)n3)ccc21"
quantity_kind = "log10(half-life at 5 μM)"
value = 0.02

[[record]]
molecule = "N#Cc1ccc(N2CCC(Nc3nc(Nc4ccn5ccnc5c4)ncc3Cl)CC2)nn1"
quantity_kind = "log10(half-life at 5 μM)"
value = -0.43

[[record]]
molecule = "CCC1CN(c2ccc(C#N)nn2)CCC1Nc1nc(Nc2ccn3cnnc3c2)ncc1Cl (centres unmarked)"
quantity_kind = "log10(half-life at 5 μM)"
value = 0.39

[[record]]
molecule = "N#Cc1ccc(N2CCC(Nc3nc(Nc4ccn5c(C(F)F)nnc5c4)ncc3Cl)CC2)nc1"
quantity_kind = "log10(half-life at 5 μM)"
value = 0.32

[[record]]
molecule = "CC(C)(O)c1cn2ccc(Nc3ncc(Cl)c(NC4CCN(c5ccc(C#N)nn5)CC4)n3)cc2n1"
quantity_kind = "log10(half-life at 5 μM)"
value = -0.50

[[record]]
molecule = "CC(C)(O)Cc1cnc2cc(Nc3ncc(Cl)c(NC4CCN(c5ccc(C#N)nn5)CC4)n3)ccn12"
quantity_kind = "log10(half-life at 5 μM)"
value = -0.17

[[record]]
molecule = "CC(C)(O)c1cnc2cc(Nc3ncc(Cl)c(NC4CCN(c5ccc(C#N)nn5)CC4)n3)ccn12"
quantity_kind = "log10(half-life at 5 μM)"
value = -0.37

[[record]]
molecule = "CC(C)(O)Cn1nnc2cc(Nc3ncc(Cl)c(NC4CCN(c5ccc(C#N)nn5)CC4)n3)ccc21"
quantity_kind = "log10(half-life at 5 μM)"
value = 0.50

[[record]]
molecule = "Cc1cnc2cc(Nc3ncc(Cl)c(NC4CCN(c5ccc(C#N)nn5)CC4)n3)ccn12"
quantity_kind = "log10(half-life at 5 μM)"
value = 0.29

[[record]]
molecule = "CC(C)(O)c1nnc2cc(Nc3ncc(Cl)c(NC4CCN(c5ccc(C#N)cn5)CC4)n3)ccn12"
quantity_kind = "log10(half-life at 5 μM)"
value = 0.78

[[record]]
molecule = "Cc1nnc2cc(Nc3ncc(Cl)c(NC4CCN(c5ccc(C#N)nn5)CC4)n3)ccn12"
quantity_kind = "log10(half-life at 5 μM)"
value = 0.41

[[record]]
molecule = "CN(c1nc(Nc2ccc3ncnn3c2)ncc1Cl)C1CCN(c2ccc(C#N)cn2)CC1"
quantity_kind = "log10(half-life at 5 μM)"
value = 0.08

[[record]]
molecule = "CC(C)(O)Cc1cn2ccc(Nc3ncc(Cl)c(NC4CCN(c5ccc(C#N)cn5)CC4)n3)cc2n1"
quantity_kind = "log10(half-life at 5 μM)"
value = -0.60

[[record]]
molecule = "N#Cc1ccc(N2CCC(Nc3nc(Nc4ccn5c(C6CC6)cnc5c4)ncc3Cl)CC2)nn1"
quantity_kind = "log10(half-life at 5 μM)"
value = -0.36

[[record]]
molecule = "CCC1CN(c2ccc(C#N)nn2)CCC1N(C)c1nc(Nc2ccn3c(C)cnc3c2)ncc1Cl (centres unmarked)"
quantity_kind = "log10(half-life at 5 μM)"
value = 0.74

[[record]]
molecule = "CC(O)c1cnc2cc(Nc3ncc(Cl)c(NC4CCN(c5ccc(C#N)cn5)CC4)n3)ccn12 (centres unmarked)"
quantity_kind = "log10(half-life at 5 μM)"
value = -0.41

[[record]]
molecule = "CC(O)Cn1cnc2cc(Nc3ncc(Cl)c(NC4CCN(c5ccc(C#N)cn5)CC4)n3)ccc21 (centres unmarked)"
quantity_kind = "log10(half-life at 5 μM)"
value = 0.33

[[record]]
molecule = "CC(C)(F)c1nc2cc(Nc3ncc(Cl)c(NC4CCN(c5ccc(C#N)cn5)CC4)n3)ccn2n1"
quantity_kind = "log10(half-life at 5 μM)"
value = 0.06

[[record]]
molecule = "CN(C)C(=O)c1nc2cc(Nc3ncc(Cl)c(NC4CCN(c5ccc(C#N)cn5)CC4)n3)ccn2n1"
quantity_kind = "log10(half-life at 5 μM)"
value = -0.60

[[record]]
molecule = "CC(C)(O)Cn1nnc2cc(Nc3ncc(Cl)c(NC4CCN(c5ccc(C#N)cn5)CC4)n3)ccc21"
quantity_kind = "log10(half-life at 5 μM)"
value = 0.92

[[record]]
molecule = "CCC1CN(c2ccc(C#N)nn2)CCC1Nc1nc(Nc2ccn3c(C)cnc3c2)ncc1Cl (centres unmarked)"
quantity_kind = "log10(half-life at 5 μM)"
value = -0.03

[[record]]
molecule = "CC(C)(O)c1nc2cc(Nc3ncc(Cl)c(NC4CCN(c5ccc(C#N)nn5)CC4)n3)ccn2n1"
quantity_kind = "log10(half-life at 5 μM)"
value = 1.36

[[record]]
molecule = "Cc1c(Nc2ncc(Cl)c(NC3CCN(c4ccc(C#N)nn4)CC3)n2)ccn2c(C)cnc12"
quantity_kind = "log10(half-life at 5 μM)"
value = -0.14

[[record]]
molecule = "Cc1nc2cc(Nc3ncc(Cl)c(NC4CCN(c5ccc(C#N)nn5)CC4)n3)ccc2n1C"
quantity_kind = "log10(half-life at 5 μM)"
value = -0.06

